Each recorded value in this set is attributed to the kinase profiling compilation of Christmann-Franck et al. (2016).

Field: residual activity. Provide a value for each of the molecules that follow.
assay system: PTK2 (human)
assay comment: radiometric filter-binding kinase assay, Kinase HotSpot
condition info: compound 0.5 µM; ATP 10 µM
Answer format: numeric, % implied, no suffix.

Quickly give me recorded residual activity for C[C@@H]1CCN(C(=O)CC#N)C[C@@H]1N(C)c1ncnc2[nH]ccc12
103

Return residual activity for the following molecule: COc1cc2ncnc(Nc3ccc(Oc4ccccc4)cc3)c2cc1OC
98.1

// Input: O=C1Nc2ccc(Br)cc2/C1=C\c1cc2c([nH]1)CCCC2 . Output its residual activity only.
81.9

Quick one: give measured residual activity for NC(=O)c1cccc(-c2cc(Nc3ccc(OC(F)(F)F)cc3)ncn2)c1
100

Please report residual activity for the following molecule: Ic1cccc(CSc2nnc(-c3ccncc3)o2)c1
106

Name the recorded residual activity of the molecule listed here: CO[C@@H]1[C@H](N(C)C(=O)c2ccccc2)C[C@H]2O[C@]1(C)n1c3ccccc3c3c4c(c5c6ccccc6n2c5c31)C(=O)NC4
87.4

Please give the documented residual activity of Cc1cccc(-c2nc(C(C)(C)C)[nH]c2-c2ccc3c(c2)OCO3)n1
98.1

Annotate the molecule Cc1nc(-c2ccccc2)c(-c2ccncc2)o1 with its measured residual activity.
106

State its residual activity: Fc1ccc(-c2nc3n(c2-c2ccncc2)CCS3)cc1
102

Indicate its recorded residual activity; the molecule in question is CS(=O)(=O)CCNCc1ccc(-c2ccc3ncnc(Nc4ccc(OCc5cccc(F)c5)c(Cl)c4)c3c2)o1
104
